Data provenance is PubChem BioAssay.

Listed next: entries and their corresponding differential viability (reversal).
experimental-protocol: reversal of MRP1-mediated doxorubicin resistance, pilot screen, H69AR cells, doxorubicin co-treatment (AID 601)
test-context: H69AR cells + 2 uM doxorubicin, CellTiter-Glo, 72 h; at 10 µM; stronger effect = higher value
A number alone suffices; assume %.

Known differential viability (reversal) results, listed for orientation:
Cc1ccc(S(=O)(=O)N2CCCN(S(=O)(=O)C3CCS(=O)(=O)C3)CC2)cc1 (configuration not stated)
8.77
Cc1nc(NC2=NCN(CCc3ccccc3)CN2)nc2c(C)cccc12
-15.7
c1cc(C(c2nnnn2C2CCCC2)N2CCOCC2)ccn1 (configuration not stated)
-0.285
C=CCOC(=O)CC(NC(=O)c1ccccc1)c1ccccc1 (configuration not stated)
19.7
Clc1ccc(C2Nc3ccccc3-n3cccc32)cc1 (configuration not stated)
-9.2
COc1ccccc1NC(=O)CSc1nnc(Cn2nnc(-c3ccccc3)n2)n1-c1ccccc1
-5.36

Incoming: Need differential viability (reversal), item "O=C(COC(=O)c1ccccc1C(=O)c1ccccc1)c1ccco1"
Outgoing: 2.52

Incoming: Need differential viability (reversal), item "O=S(=O)(Cc1ccccc1)N1CCN(Cc2ccccc2)CC1"
Outgoing: 15.5

* * *

experimental-protocol: reducers of endogenous Her2 protein level, primary screen, SKBR3 breast tumor cells, AlphaScreen, ATP viability (AID 461);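 further: percent of carrier control wells set as 100% viability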
test-context: 18-24 h, measured here: SKBR3 viability, ATP luminescence, at 10 µM
Listed next: entries and their corresponding viability.
A number alone suffices; assume %.

Incoming: Need viability, item "CCOC(=O)CSc1nc2ccccc2n1CC(=O)N1CCN(c2ccccc2)CC1"
Outgoing: 93.5

Incoming: Need viability, item "Cc1sc2ncnc(SCC(=O)N3CCCC3)c2c1C"
Outgoing: 124

Incoming: Need viability, item O=C(CCCN1C(=O)c2ccccc2C1=O)N1CCC(c2ccccc2)C1 (stereo not given)
Outgoing: 110

Incoming: Need viability, item "CC(=O)N1CCN(c2ccc(NC(=O)c3ccc(C(C)(C)C)cc3)cc2)CC1"
Outgoing: 74.5

Incoming: Need viability, item "CCc1nc(N[C@@H](Cc2c[nH]c3ccccc23)C(=O)O)c2oc3ccccc3c2n1"
Outgoing: 100

* * *

experimental-protocol: HUVEC growth inhibition – cell-based, human, primary screen (AID 575);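 further: 100% = median of untreated cell wells with 0.1% DMSO on each plate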
test-context: HUVEC proliferation, CellTiter-Glo luminescence, 72 h; at 10 µM; stronger effect = lower value
Listed next: entries and their corresponding viability.
A number alone suffices; assume %.

Known viability results, listed for orientation:
COCCNC(=O)c1c(N)n(/N=C/c2cccs2)c2nc3ccccc3nc12
78.2
CN(C)c1ccc(C=Nc2ccc(N(C)C)cc2)cc1
74.2
COC(=O)C1C(=O)C2=C(CC1C)NC(=O)CC2c1ccccc1 (centres undefined)
91.7
O=C(COC(=O)Cc1cccc(C(F)(F)F)c1)NCC1CCCO1 (centres undefined)
96.5
CCN1CCN(Cc2ccccc2NC(=O)Nc2ccc(C)cc2)CC1
89.7

// moving on: another record for viability
Incoming: Need viability, item "O=C(CN1CCCN(S(=O)(=O)c2ccc(F)cc2)CC1)Nc1ccccc1Br"
Outgoing: 87.7

* * *

experimental-protocol: growth suppression of yeast trafficking mutant, preliminary HTS, modulators of trafficking downstream of Golgi apparatus project, 1536-format plate, OD 615 nm (AID 637)
test-context: yeast transport mutant growth, absorbance 615 nm, 18 h; stronger effect = higher value
Listed next: entries and their corresponding inhibition.
A number alone suffices; assume %.

Known inhibition results, listed for orientation:
Cc1ccc2nc(-c3ccc4c(c3)OCCO4)cc(C(=O)O)c2c1
-6
CCCc1nc2ccccc2c2nc(N)nn12
0.95
Cc1c(C(=O)NC2CCCc3ccccc32)oc2ccc(S(=O)(=O)N3CCOCC3)cc12 (stereo not given)
1.29
CCSc1nnc(NC(=O)c2ccccn2)s1
9.21
Cc1nnc(NCc2n[nH]c(=O)c3ccccc23)c2ccccc12
1.64
COc1cccc(CC(=O)Nn2c(C)nc3ccccc3c2=O)c1
-5.27
O=C1c2oc3ccccc3c(=O)c2C(c2cccnc2)N1Cc1ccco1 (stereo not given)
-2.36
COc1ccc(CCNC(=O)CSCc2n[nH]c(=O)[nH]2)cc1OC
0

// moving on: another record for inhibition
Incoming: Need inhibition, item "CC(C)(C)c1ccc(-c2nnc(SCCC#N)n2C2CCCC2)cc1"
Outgoing: -4.1

* * *

experimental-protocol: 384-well plate pilot, post-Golgi transport modulator project, inhibition of yeast transport mutant growth (AID 636)
test-context: absorbance 615 nm, about 18 h, stronger effect = higher value
Active and inactive are the calls of the source. Rule as the data show it: active = inhibition above about 31%; inactive = the rest.
Listed next: entries and their corresponding inhibition.

Cc1ccc(-n2nnnc2SCC(=O)N2CCc3ccccc3C2)cc1
-2.5% (inactive)
Cc1cccc(-n2ncc3c(NCc4ccccn4)ncnc32)c1
-1.17% (inactive)
Cc1ccc(S(=O)(=O)NCCCNC(=O)N2CCOCC2)cc1
-1.05% (inactive)

Incoming: Need inhibition, item "COc1ccc(NC(=O)N2CCC(O)(c3cccnc3)CC2)c(OC)c1"
Outgoing: -1.43% (inactive)

Incoming: Need inhibition, item "O=C(Cc1ccccc1)Nc1ccc(CN2CCOCC2)cc1"
Outgoing: -4.67% (inactive)

Incoming: Need inhibition, item "COc1ccc(OC)c(-c2nc3c(C)n[nH]c(=O)c3[nH]2)c1"
Outgoing: -6.13% (inactive)

* * *

Listed next: entries and their corresponding viability.
experimental-protocol: reversal of MRP1-mediated doxorubicin resistance, pilot screen, H69AR cells, doxorubicin co-treatment (AID 601)
test-context: H69AR cells, CellTiter-Glo, 72 h; compound alone cytotoxicity; at 10 µM
A number alone suffices; assume %.

Known viability results, listed for orientation:
Cc1sc2ncnc(SCC(=O)N3CCCC3)c2c1C
93
COc1ccc(C2C(C(C)=O)=C(O)C(=O)N2C)c(OC)c1 (stereo not drawn)
114
CCOC(=O)C1C(=O)NC(SCC(=O)Nc2nccs2)=C(C#N)C1c1ccccc1OCC (stereo not drawn)
71.3
Nc1nc(SCc2nc3scc(-c4cccs4)c3c(=O)[nH]2)n[nH]1
93.4

Incoming: Need viability, item "COc1ccc(-n2nnnc2SCC(=O)c2ccc(O)c(O)c2)cc1"
Outgoing: 34.7

Incoming: Need viability, item "CN(C)CCCN1c2ccccc2Sc2ccccc21"
Outgoing: 74.7

Incoming: Need viability, item "CCN1CCN(C(=O)N[C@@H](C(=O)N[C@@H]2C(=O)N3[C@@H]2SC(C)(C)[C@@H]3C(=O)O)c2ccccc2)C(=O)C1=O"
Outgoing: 91.5

Incoming: Need viability, item "CCCC1(CCC)NC(=O)NC1=O"
Outgoing: 98.2

Incoming: Need viability, item "C[C@]12CC[C@@H]3c4ccc(OC(=O)c5ccccc5)cc4CC[C@H]3[C@@H]1CC[C@@H]2O"
Outgoing: 39

Incoming: Need viability, item Cc1cccc(N2CCN(C(=O)C3CCCN(S(=O)(=O)c4c(C)noc4C)C3)CC2)c1C (stereo not drawn)
Outgoing: 81.9

Incoming: Need viability, item "O=C(CSc1ccccc1C(=O)NCCCN1CCCC1=O)NCc1ccco1"
Outgoing: 82.3

Incoming: Need viability, item CC1(C)SC2[C@H](NC(=O)C(NC(=O)N3CCNC3=O)c3ccccc3)C(=O)N2C1C(=O)O (stereo partly drawn)
Outgoing: 95.3

Incoming: Need viability, item "CC1=NS(=O)(=O)c2cc(Cl)ccc2N1"
Outgoing: 94.4

Incoming: Need viability, item COC(=O)C1=C(C)Nc2ncnn2C1c1ccco1 (stereo not drawn)
Outgoing: 85.9

Incoming: Need viability, item "CCc1nnc(SCc2cn3c(C)cc(C)nc3n2)n1N"
Outgoing: 108

Incoming: Need viability, item COC(=O)c1ccc(C2C(C#N)=C(N)Oc3cc(C)n(C)c(=O)c32)cc1 (stereo not drawn)
Outgoing: 97.8

Incoming: Need viability, item "COc1ccc(-c2nc(SC)n(S(=O)(=O)c3ccccc3)n2)cc1"
Outgoing: 98.1

Incoming: Need viability, item "c1coc(-c2nnc(-c3cccs3)o2)c1"
Outgoing: 102

Incoming: Need viability, item "CCOC(=O)C1CCN(C(=O)CCCCn2c(=O)[nH]c3ccccc3c2=O)CC1"
Outgoing: 101

Incoming: Need viability, item COc1cccc(NC(=O)CC2SC(=Nc3ccccc3)NC2=O)c1 (stereo not drawn)
Outgoing: 92

* * *

experimental-protocol: growth inhibitors of H69AR lung tumor, primary screen, human, duplicate replicates (AID 580);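 further: 100% = mean luminescence of untreated wells and 0% = no signal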
test-context: H69AR lung tumor cells viability, ATP luminescence, 72 h; at 10 µM
The source made the active and inactive calls.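 How the source made its calls: active means viability at or under a set limit in both replicates, limit being median viability minus 3 SD (cut at about 48% in these data, passing the limit was not always enough); inconclusive means at or under the limit in just one replicate; inactive means at or above the limit in both replicates.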
Response enum: T for active, F for inactive

CCN(CCO)C(=O)CC(c1ccccc1)c1cc(Br)ccc1O (stereo not drawn)
F

Kindly consider the entry below.
Incoming: Which outcome was entered for the molecule COc1ccc(OC)c(NC(=O)C2C3CC4OC(=O)C2C4C3)c1 (stereo not drawn) in this test?
Outgoing: F

* * *

experimental-protocol: HUVEC growth inhibition – cell-based, human, primary screen (AID 575);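 further: 100% = median of untreated cell wells with 0.1% DMSO on each plate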
test-context: HUVEC proliferation, CellTiter-Glo luminescence, 72 h; at 10 µM
Active and inactive are the calls of the source.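 Rule for the calls: active = viability at or below 30% in both replicate assays; inconclusive = viability at or below 30% in just one of the two assays; inactive = the rest.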
Response enum: True = active, False = inactive

Some entries whose results are on file:
CCCCc1cc(=O)oc2c(CN3CCCC3)c(O)c(Cl)cc12
False
O=C(C1CCCCC1)N1CCC(c2nc3c(nnn3Cc3ccccc3Cl)c(=O)[nH]2)CC1
False
NCCCCCc1nnc(SC/C=C/c2ccccc2)o1
False
Nc1ccc(S(=O)(=O)Nc2ccccn2)cc1
False
CCCCOc1ccc(S(=O)(=O)n2c(C)nc3ccccc32)cc1
False

Incoming: Which outcome was entered for the compound COc1ccc(CCN2C(=O)CCC2(C)C(=O)NCc2cccnc2)cc1OC (stereo unspecified) in this test?
Outgoing: False

Incoming: Which outcome was entered for the compound "COc1cc(Nc2cc(C)nc3ncnn23)cc(OC)c1OC" in this test?
Outgoing: False

Incoming: Which outcome was entered for the compound "COC(=O)Nc1sccc1C(=O)Nc1sccc1C(=O)OC" in this test?
Outgoing: False

Incoming: Which outcome was entered for the compound C=C1[C@@H](C)C2[C@H](Cc3ccccc3)NC(=O)[C@]23OC(=O)CC[C@H](O)CCC[C@H](C)C/C=C/[C@H]3[C@@H]1O (stereo partly specified) in this test?
Outgoing: True

Incoming: Which outcome was entered for the compound "CCn1cc(C(=O)O)c(=O)c2cc(F)c(N3CCNCC3)cc21" in this test?
Outgoing: False

Incoming: Which outcome was entered for the compound COc1ccc(-c2nnc(SCC(=O)Nc3sc4c(c3C#N)CCC4)n2CC2CCCO2)cc1 (stereo unspecified) in this test?
Outgoing: False
